Recorded values, source ChEMBL document CHEMBL5634142.

Assay: Cytotoxicity against Cynomolgous monkey hepatocytes harboring Simian virus assessed as reduction in cell viability administered for 3 hrs followed by replacement with fresh medium containing compound for every 24 hrs by DAPI staining based analysis
Assay type: toxicity, Macaca fascicularis, Hepatocyte
Settings: cynomolgus monkey

compound: Cc1ccc(-c2cc3nc(NC4CC4)[nH]c(=O)c3s2)cc1
CC50 at 3 h: > 100 µM
--
compound: Cc1ccc(-c2cc3nc(NC4CCC4)[nH]c(=O)c3s2)cc1
CC50 at 3 h: > 100 µM
--
compound: Cc1ccc(-c2cc3nc(NC4CCCC4)[nH]c(=O)c3s2)cc1
CC50 at 3 h: > 100 µM
--
compound: Cc1ccc(-c2cc3nc(NC(C)C)[nH]c(=O)c3s2)cc1
CC50 at 3 h: > 200 µM
--
compound: COc1cc(NC(C)CCCN)c2ncccc2c1 (stereo not drawn)
CC50 at 3 h: > 50 µM
--
compound: [2H]C([2H])([2H])C(Nc1nc2cc(-c3ccc(C)cc3)sc2c(=O)[nH]1)C([2H])([2H])[2H]
CC50 at 3 h: > 100 µM
--
compound: Cc1ccc(-c2cc3nc(N4CCCC4)[nH]c(=O)c3s2)cc1
CC50 at 3 h: > 200 µM
--
compound: [2H]C([2H])([2H])C(Nc1nc2cc(-c3ccc(C)cc3)sc2c(=O)[nH]1)(C([2H])([2H])[2H])C([2H])([2H])[2H]
CC50 at 3 h: > 100 µM
